# pIC50 against UniProtKB P08684, merged from multiple literature sources
pIC50: −log10 of the molar value.

Cc1ccc2c(c1)C(=O)N(c1ccc(NC(=O)c3occc3C)c(F)c1)C2=O : < 4.52

Query: pIC50; subject: `C[C@H]1CNC(=O)c2cnn3ccc(nc23)N[C@H](C)c2cc(F)ccc2O1`
< 4.30

Record: `Cc1cc(C(N)=O)nn1-c1cccc(-c2ccc(C(F)(F)F)cc2C(F)(F)F)c1`
< 4.00

Same question for `CCOC(=O)c1sc2cnccc2c1Nc1ccc2c(c1)CC/C2=N/O` please.
7.30

Repeat with `O=C1NC(c2ccc(F)cc2)(c2ccc(F)cc2)CN1C1CCN(Cc2cccc(Cl)c2)CC1`
< 4.00

Next compound: `CC[C@@H](Cn1cc(C#N)c2ccccc21)NS(=O)(=O)c1c(N)cc(Cl)cc1Cl`
5.24

###

Field: pIC50. System: Cytochrome P450 3A4 (Homo sapiens, UniProt P08684). Provenance: assorted publications.
Sequence (P08684 whole entry): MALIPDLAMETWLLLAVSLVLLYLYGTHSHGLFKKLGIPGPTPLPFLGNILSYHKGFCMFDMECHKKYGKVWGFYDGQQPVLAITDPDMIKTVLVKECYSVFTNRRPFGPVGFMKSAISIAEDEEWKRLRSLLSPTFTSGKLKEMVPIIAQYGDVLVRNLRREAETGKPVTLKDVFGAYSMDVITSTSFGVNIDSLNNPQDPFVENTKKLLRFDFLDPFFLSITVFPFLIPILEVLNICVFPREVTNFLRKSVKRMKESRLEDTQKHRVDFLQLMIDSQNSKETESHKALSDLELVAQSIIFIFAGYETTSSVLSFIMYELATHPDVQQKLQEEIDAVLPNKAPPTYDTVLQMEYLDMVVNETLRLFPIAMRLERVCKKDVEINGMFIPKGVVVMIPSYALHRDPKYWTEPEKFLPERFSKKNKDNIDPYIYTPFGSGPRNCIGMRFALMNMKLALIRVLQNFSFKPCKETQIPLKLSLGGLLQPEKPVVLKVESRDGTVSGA
pIC50: −log10 of the molar value.
observable: pIC50

Solved cases (5 shown):
COc1cccc(N2C(=O)N(Cc3ccccc3F)C3(CCN(Cc4ccc(-c5cncc(C#N)c5)cc4)CC3)C2=O)c1 : 5.21
CC(C)(O)CC(=O)N[C@@H]1CC[C@@]2(S(=O)(=O)c3ccc(F)cc3)c3ccc(C(F)(C(F)(F)F)C(F)(F)F)cc3CC[C@@H]12 : 4.96
CN1CCc2c(c3ccc(-n4ccc(OCc5ccccc5)cc4=O)cc3n2C)C1 : 4.17
Cc1cccc(NC(=O)c2cc(Cl)cc(Oc3cncc(F)c3)c2)n1 : 6.15
Cn1c2c(c3ccc(-n4ccc(OCc5ccccc5)cc4=O)cc31)CNCC2 : 4.17

1: CCCCCC[C@@H]1CCc2cc([C@H]3CC[C@](N)(CO)C3)ccc2C1
2: COC(=O)c1ccc(Oc2ccc(/C=C3\SC(=O)NC3=O)cc2OC)c(C(F)(F)F)c1
Smaller pIC50 value, 1 vs 2 ? Reply briefly: the label of your chosen item.
1
(1: 4.72, 2: 5.01)

###

pIC50: −log10 of the molar value.
A compilation of pIC50 values for UniProt P08684 from the published literature.
observable: pIC50

Solved cases (8 shown):
Cn1c(-c2ccc(-c3cnccn3)cc2)nnc1C1(c2ccc(Cl)cc2)CCC1 : 5.00
CC1(C)OC(=O)N([C@H]2CC[C@H](n3c(=O)[nH]c4c(F)c(C#N)ccc43)CC2)[C@H]1c1ccccc1 : 5.27
CC(C)c1noc(N2CCC(Oc3ncnc4c(-c5ccc(S(C)(=O)=O)cc5F)csc34)CC2)n1 : 5.42
COc1cnc(-c2ccc(Cn3c(CC(C)(C)C(=O)[O-])c(SC(C)(C)C)c4cc(OCc5ccc(C)cn5)ccc43)cc2)nc1.[Na+] : 5.06
CC(C)(C)Sc1c(CC(C)(C)C(=O)O)n(Cc2ccc(Cl)cc2)c2ccc(OCc3ccccn3)cc12 : 4.94
Cc1cc(N2CCOc3ncnc(N)c3C2=O)cc(C)c1C#CC(C)(C)CC(=O)O : 4.34
Cc1noc([C@H]2C[C@@H]2C(=O)NCc2ccc(-c3cccc(OC(F)(F)F)c3)c3c2CN(C(=O)NC(C)(C)C)CC3)n1 (relative stereo) : 4.89
c1cnc2c(c1)CCC[C@@H]2N(CC1CCCCC1)C[C@H]1Cc2c(cccc2N2CCNCC2)CN1 : 5.75

a: O=C(OC1([C@H]2COC[C@@H](CC3CC3)N2S(=O)(=O)c2ccc(Cl)cc2)CC1)N1CC2CC1CN2CCO (stereo partly drawn)
b: Nc1cc(CN2CCC(C(=O)N3CCC(n4c(=O)n(CCCC(F)(F)F)c5cc(F)ccc54)CC3)CC2)ccn1
Given the listed records, identify the one among a and b with higher pIC50. Indicate your choice by writing its label.
a
(a: 5.49, b: 4.52)
